target: HLA-DR DRB1*0301 (human); experiment: competition with 125I-labeled reference peptide, purified HLA

binder	IC50, nM
ALQLLFEVEQEIRTF (modifications not checked) [Flu.NS2.178]	403
LKQYDSDEPELRSLS (modifications not checked) [Flu.PA.393]	88
RNYFTAEVSHCRATE (modifications not checked) [Flu.PA.446]	883
SIWIELDEIGEDVAP (modifications not checked) [Flu.PA.423]	59
